Each recorded value in this set is attributed to PubChem BioAssay (EPA / NIEHS).

Read-out: Macrophage colony-stimulating factor (MCSF), CSF1 (gene 1435)
assay comment: BSK_hDFCGF_MCSF: BioMAP Diversity Plus: hDFCGF Assay for Macrophage colony-stimulating factor (MCSF) Biomarker Activity (AID 2283060)
experimental setup: primary human foreskin fibroblasts; actives raise or lower the signal
Calls of active or inactive are those of the source. The calls were made as follows: active = hit-call score of the fitted dose curve at least 0.9, where 1 is the maximum; inactive = score below 0.9.
Valid outcomes are listed here; reply with one: active, inactive

# input State the result this test recorded for Oc1cc(Cl)ccc1Oc1ccc(Cl)cc1Cl .
# output active

***
# input Call for entry O=C(O)C(F)(F)C(F)(F)C(F)(F)C(F)(F)C(F)(F)C(F)(F)C(F)(F)F :
# output inactive

# input Identify the outcome logged in this assay for the compound shown: CC(C)(C)C(O)/C(=C\c1ccc(Cl)cc1Cl)n1cncn1 (stereo not given)
# output active

# input Which outcome was entered for the compound CNC(=O)CSP(=S)(OC)OC in this test?
# output inactive

# input # outcome recorded in this test, key = O=C1c2ccccc2C(=O)N1SC(Cl)(Cl)Cl
# output active

# input // param item: ClC1C(Cl)C(Cl)C(Cl)C(Cl)C1Cl (stereo not given) ; yields the recorded call
# output inactive

# input What did the test return for Oc1ccc(Cl)cc1Cc1ccccc1 ?
# output active

# input What outcome does the record of this test show for O=C(O)CCCOc1ccc(Cl)cc1Cl ?
# output inactive

# input Check the results log: what was the call for CCc1ccc(C(=O)NN(C(=O)c2cc(C)cc(C)c2)C(C)(C)C)cc1 ?
# output inactive

# input Test call for this compound, please: COC(=O)c1ccccc1S(=O)(=O)NC(=O)N(C)c1nc(C)nc(OC)n1
# output inactive
